Biological target: TLR7 (Homo sapiens, UniProt Q9NYK1)
Sequence (Q9NYK1 27-1049): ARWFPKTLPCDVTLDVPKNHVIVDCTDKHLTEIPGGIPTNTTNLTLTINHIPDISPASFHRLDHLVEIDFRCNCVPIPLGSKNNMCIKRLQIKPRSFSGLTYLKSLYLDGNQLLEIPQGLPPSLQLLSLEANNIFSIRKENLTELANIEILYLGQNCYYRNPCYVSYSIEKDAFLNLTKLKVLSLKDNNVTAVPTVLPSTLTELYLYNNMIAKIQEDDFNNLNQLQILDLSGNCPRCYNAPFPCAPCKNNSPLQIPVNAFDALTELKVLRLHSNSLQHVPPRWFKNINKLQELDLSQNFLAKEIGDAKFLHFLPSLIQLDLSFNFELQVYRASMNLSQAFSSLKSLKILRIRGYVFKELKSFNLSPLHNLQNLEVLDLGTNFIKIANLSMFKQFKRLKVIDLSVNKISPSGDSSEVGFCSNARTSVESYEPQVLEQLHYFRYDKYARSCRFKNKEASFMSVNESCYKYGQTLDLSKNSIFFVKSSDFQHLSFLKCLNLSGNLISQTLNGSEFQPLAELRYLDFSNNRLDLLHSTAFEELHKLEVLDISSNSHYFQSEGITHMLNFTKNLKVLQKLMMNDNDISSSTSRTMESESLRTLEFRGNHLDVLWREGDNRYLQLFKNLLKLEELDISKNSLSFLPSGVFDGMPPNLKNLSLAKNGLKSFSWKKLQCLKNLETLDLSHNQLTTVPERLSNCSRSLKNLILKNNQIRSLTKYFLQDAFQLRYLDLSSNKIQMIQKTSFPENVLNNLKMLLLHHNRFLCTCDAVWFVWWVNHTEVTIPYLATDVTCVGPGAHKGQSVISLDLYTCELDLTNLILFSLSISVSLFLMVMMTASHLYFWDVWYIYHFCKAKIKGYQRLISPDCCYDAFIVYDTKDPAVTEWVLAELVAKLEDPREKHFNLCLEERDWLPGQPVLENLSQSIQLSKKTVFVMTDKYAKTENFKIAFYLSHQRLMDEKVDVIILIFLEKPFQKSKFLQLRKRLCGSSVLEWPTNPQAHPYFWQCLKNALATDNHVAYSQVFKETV
Assay: TLR7 cell based assay (HEK-BLUE-hTLR7, SEAP reporter linked to NF-κB activation)
Conditions: HEK-BLUE-hTLR7 cells, 24 hours treatment, SEAP/QUANTI-Blue readout
pEC50: −log10 of the molar value.
Would you mind telling me the reported pEC50 of each entry?

INPUT: Query pEC50 on TLR7 (Homo sapiens, UniProt Q9NYK1) for CCCN(CCC)C(=O)C1=Cc2ccc(-c3ccc4c(=O)n(CC(=O)NC)ncc4c3)cc2N=C(N)C1 [Compound 1-8-2]
OUTPUT: < 4.30

INPUT: Query pEC50 on TLR7 (Homo sapiens, UniProt Q9NYK1) for CCCN(CCC)C(=O)C1=Cc2ccc(-c3ccc4c(c3)CCN(CCO)C4=O)cc2N=C(N)C1 [Compound 1-4-10]
OUTPUT: < 4.30

INPUT: Query pEC50 on TLR7 (Homo sapiens, UniProt Q9NYK1) for CCCN(CCC)C(=O)C1=Cc2ccc(-c3ccc4c(=O)n(CCOC)ccc4c3)cc2N=C(N)C1 [Compound 1-2-14]
OUTPUT: < 4.30

INPUT: Query pEC50 on TLR7 (Homo sapiens, UniProt Q9NYK1) for CCCN(CCC)C(=O)C1=Cc2ccc(-c3ccc4c(=O)n(CCS(C)(=O)=O)ccc4c3)cc2N=C(N)C1 [Compound 1-2-23]
OUTPUT: < 4.30
